Where do the numbers come from? From the supplement of paper PMC3334620.

Target: Mot3 (UniProt P54785)
Sequence: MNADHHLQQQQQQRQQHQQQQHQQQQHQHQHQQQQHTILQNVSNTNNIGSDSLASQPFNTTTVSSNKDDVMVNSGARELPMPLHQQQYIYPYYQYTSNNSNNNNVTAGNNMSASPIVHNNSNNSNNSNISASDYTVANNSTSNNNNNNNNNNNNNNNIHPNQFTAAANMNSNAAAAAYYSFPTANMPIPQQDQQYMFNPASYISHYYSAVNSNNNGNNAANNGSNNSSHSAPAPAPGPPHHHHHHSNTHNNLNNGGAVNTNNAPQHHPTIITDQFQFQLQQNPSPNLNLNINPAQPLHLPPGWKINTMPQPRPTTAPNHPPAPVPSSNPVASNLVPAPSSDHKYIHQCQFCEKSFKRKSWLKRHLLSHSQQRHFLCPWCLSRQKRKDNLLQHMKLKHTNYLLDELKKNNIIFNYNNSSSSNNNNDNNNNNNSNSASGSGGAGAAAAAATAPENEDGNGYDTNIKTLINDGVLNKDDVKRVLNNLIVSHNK
Assay: PBM E-score (8-mer binding enrichment) (E-score (-0.5 to 0.5)); higher = stronger / more preferred TF binding
Conditions: protein concentration: 200 nM; construct: GST-full length
Over roughly 33,000 sequences, “E-score (-0.5 to 0.5)” has its median near -0.035; the highest 2% begin near 0.34. The sample holds the highest values, similar sequences and a random draw of the others, so the mix is not that of the screen.
Kindly return label 1 if reported PBM E-score is no lower than -0.04; return label 0 if it is lower.

INSERT INTO measurements (sequence_code, assigned_label) VALUES
  ('CCAACCAC', 'label 1'),
  ('ACAGTTCT', 'label 0'),
  ('ACCGGTTC', 'label 0'),
  ('CTTTCCTA', 'label 1'),
  ('CCCCCGCA', 'label 0'),
  ('CTTTCCCA', 'label 0'),
  ('ACAGACTG', 'label 0'),
  ('TAGGCATA', 'label 1'),
  ('AAGGCAGA', 'label 1'),
  ('CAACCAGA', 'label 1'),
  ('CGTTTGTC', 'label 0'),
  ('TAGGCAGA', 'label 1'),
  ('CTCGGCTA', 'label 1'),
  ('AACGTATG', 'label 1'),
  ('AAGGCACT', 'label 1'),
  ('AGGGCACT', 'label 1'),
  ('AGCATGTG', 'label 1'),
  ('AGGGCACA', 'label 1'),
  ('ACGGTTTG', 'label 0'),
  ('CGTGCTTC', 'label 1'),
  ('CCGGCGAG', 'label 0'),
  ('ATCTACCG', 'label 0'),
  ('AATACCCC', 'label 0'),
  ('ACAAAGGG', 'label 1'),
  ('CAACAACA', 'label 1'),
  ('CCAAATAG', 'label 1'),
  ('CGCTCTTC', 'label 0'),
  ('GCCAGCGC', 'label 0'),
  ('CCGCAAGG', 'label 0'),
  ('CGCATGGA', 'label 1'),
  ('TAGGCACA', 'label 1'),
  ('AGCATGTA', 'label 1'),
  ('ACCTCTTG', 'label 0'),
  ('GTGTGCAA', 'label 1'),
  ('GGCATGTA', 'label 1'),
  ('AACACGTC', 'label 1'),
  ('AGGGGTGG', 'label 0'),
  ('GTCTGTAA', 'label 1'),
  ('CATAGAAC', 'label 1'),
  ('GTTTCCAA', 'label 0'),
  ('ACAATTCC', 'label 1'),
  ('CCAAAGGC', 'label 1'),
  ('CCGAAGAC', 'label 0'),
  ('ATTCTCTC', 'label 0');
